Molecular target: von Hippel-Lindau disease tumor suppressor/1-phosphatidylinositol 3-phosphate 5-kinase (Homo sapiens) (UniProt Q9Y2I7+P40337)
Sequence (P40337 whole entry partner): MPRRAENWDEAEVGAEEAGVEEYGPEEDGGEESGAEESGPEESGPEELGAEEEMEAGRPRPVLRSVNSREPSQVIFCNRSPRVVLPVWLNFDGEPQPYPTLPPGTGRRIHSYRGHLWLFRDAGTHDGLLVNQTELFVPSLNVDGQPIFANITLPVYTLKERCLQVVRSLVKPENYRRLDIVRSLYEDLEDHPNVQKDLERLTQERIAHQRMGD
Sequence (Q9Y2I7 2-2098 limits assumed): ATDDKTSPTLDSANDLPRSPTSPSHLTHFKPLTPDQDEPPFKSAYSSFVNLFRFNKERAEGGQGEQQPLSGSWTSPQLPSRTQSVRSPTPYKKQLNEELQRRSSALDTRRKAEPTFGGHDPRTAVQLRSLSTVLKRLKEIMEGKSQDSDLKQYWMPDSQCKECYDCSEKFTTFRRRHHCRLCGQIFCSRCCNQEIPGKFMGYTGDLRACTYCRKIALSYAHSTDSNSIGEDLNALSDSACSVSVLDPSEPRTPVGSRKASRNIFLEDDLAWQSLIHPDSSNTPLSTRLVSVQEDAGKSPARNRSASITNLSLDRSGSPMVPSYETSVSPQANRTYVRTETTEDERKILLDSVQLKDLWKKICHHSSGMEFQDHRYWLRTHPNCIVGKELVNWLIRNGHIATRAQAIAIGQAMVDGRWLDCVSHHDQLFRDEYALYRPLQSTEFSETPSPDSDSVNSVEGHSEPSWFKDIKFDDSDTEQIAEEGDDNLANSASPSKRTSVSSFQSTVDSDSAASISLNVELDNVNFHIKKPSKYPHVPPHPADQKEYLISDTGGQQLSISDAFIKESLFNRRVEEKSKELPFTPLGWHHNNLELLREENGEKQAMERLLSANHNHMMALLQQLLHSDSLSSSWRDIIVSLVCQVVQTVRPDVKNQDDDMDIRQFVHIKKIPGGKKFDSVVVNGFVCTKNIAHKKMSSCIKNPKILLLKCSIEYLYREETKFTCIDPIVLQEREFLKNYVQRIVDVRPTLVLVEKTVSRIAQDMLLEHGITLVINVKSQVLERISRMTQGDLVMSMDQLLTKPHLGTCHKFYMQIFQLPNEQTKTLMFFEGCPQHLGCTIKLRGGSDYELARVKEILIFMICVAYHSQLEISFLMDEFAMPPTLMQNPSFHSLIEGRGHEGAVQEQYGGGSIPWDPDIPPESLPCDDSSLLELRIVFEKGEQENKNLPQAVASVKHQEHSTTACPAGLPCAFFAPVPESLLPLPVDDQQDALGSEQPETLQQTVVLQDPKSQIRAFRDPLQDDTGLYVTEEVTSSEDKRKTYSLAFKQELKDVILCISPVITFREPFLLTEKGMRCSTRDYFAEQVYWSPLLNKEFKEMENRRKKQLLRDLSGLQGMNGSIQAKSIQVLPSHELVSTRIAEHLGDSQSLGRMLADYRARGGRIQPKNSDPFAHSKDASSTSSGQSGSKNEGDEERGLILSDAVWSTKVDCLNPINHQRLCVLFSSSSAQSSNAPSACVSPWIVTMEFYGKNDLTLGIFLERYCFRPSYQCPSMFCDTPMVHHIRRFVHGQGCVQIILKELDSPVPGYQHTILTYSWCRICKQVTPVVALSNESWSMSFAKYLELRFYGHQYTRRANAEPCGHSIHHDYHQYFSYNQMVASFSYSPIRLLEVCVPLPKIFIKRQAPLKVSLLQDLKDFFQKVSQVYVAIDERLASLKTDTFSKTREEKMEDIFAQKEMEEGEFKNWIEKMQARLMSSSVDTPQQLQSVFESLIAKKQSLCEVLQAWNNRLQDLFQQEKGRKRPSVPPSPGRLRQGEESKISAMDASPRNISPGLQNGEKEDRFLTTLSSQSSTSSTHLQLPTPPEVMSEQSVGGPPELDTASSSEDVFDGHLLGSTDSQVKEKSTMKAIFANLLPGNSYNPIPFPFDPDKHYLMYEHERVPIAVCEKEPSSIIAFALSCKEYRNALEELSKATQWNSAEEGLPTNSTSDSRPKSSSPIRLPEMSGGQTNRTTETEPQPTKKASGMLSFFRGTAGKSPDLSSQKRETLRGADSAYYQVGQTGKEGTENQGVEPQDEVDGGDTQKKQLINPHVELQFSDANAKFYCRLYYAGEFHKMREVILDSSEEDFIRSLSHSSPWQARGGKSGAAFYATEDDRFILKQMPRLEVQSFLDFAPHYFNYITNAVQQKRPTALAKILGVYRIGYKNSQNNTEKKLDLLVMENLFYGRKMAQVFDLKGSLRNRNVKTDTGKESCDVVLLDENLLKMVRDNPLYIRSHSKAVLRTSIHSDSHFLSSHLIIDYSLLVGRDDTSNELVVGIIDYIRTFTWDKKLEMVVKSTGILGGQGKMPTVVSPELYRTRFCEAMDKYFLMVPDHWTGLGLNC
Experiment: PROTAC activity at VHL/PIKfyve in human VCaP cells assessed as induction of PIKfyve degradation at 1 uM incubated for 24 hrs by immunoblot analysis
Format: cell-based
MEASURED_METRIC: Activity (%)

Worked examples follow.
[[record]]
structure_string = "Cc1cccc(/C=N/Nc2cc(N3CCOCC3)nc(OCCc3ccc(NC(=O)CCCC(=O)N[C@H](C(=O)N4C[C@H](O)C[C@H]4C(=O)NCc4ccc(-c5scnc5C)cc4)C(C)(C)C)cc3)n2)c1"
measured_metric = "Activity"
recorded_measurement = 0

[[record]]
structure_string = "Cc1cccc(/C=N/Nc2cc(N3CCOCC3)nc(OCCNC(=O)CC(=O)N[C@H](C(=O)N3C[C@H](O)C[C@H]3C(=O)NCc3ccc(-c4scnc4C)cc3)C(C)(C)C)n2)c1"
measured_metric = "Activity"
recorded_measurement = 0

[[record]]
structure_string = "Cc1cccc(/C=N/Nc2cc(N3CCOCC3)nc(OCCNC(=O)CCCCC(=O)N[C@H](C(=O)N3C[C@H](O)C[C@H]3C(=O)NCc3ccc(-c4scnc4C)cc3)C(C)(C)C)n2)c1"
measured_metric = "Activity"
recorded_measurement = 10


[P] Cc1cccc(/C=N/Nc2cc(N3CCOCC3)nc(OCCc3ccc(NC(=O)CC(=O)N[C@H](C(=O)N4C[C@H](O)C[C@H]4C(=O)NCc4ccc(-c5scnc5C)cc4)C(C)(C)C)cc3)n2)c1
[Q] Cc1cccc(/C=N/Nc2cc(N3CCOCC3)nc(OCCc3ccc(NC(=O)CCCCCC(=O)N[C@H](C(=O)N4C[C@H](O)C[C@H]4C(=O)NCc4ccc(-c5scnc5C)cc4)C(C)(C)C)cc3)n2)c1
## Task Dear colleague, could you let me know whether P or Q has the lower recorded Activity? Thanks. Output the label that corresponds to your choice.
## Result P
